# System: Rattus norvegicus
# experiment.notes: Toxicity in Wistar albino rat assessed as induction of sedation up to 3 g/kg, po after 8 hrs
# Format: organism-based
# condition.details: in vivo, 3000 mg/kg
measured.property: Activity

Observe how each entry below is paired with its result.
Cc1ccc2c(Cc3nn4c(C#N)c(-c5ccc(Cl)cc5)nc4s3)coc2c1    Non-toxic
Cc1ccc2c(Cc3nn4c(C=O)c(-c5ccc(Br)cc5)nc4s3)coc2c1    Non-toxic
Cc1ccc2c(Cc3nn4c(CN5CCOCC5)c(-c5ccc(Br)cc5)nc4s3)coc2c1    Non-toxic
Cc1ccc2c(Cc3nn4cc(-c5ccc(Cl)cc5)nc4s3)coc2c1    Non-toxic

Here is another compound to look at.
The compound identified as `Cc1ccc2c(Cc3nn4c(CO)c(-c5ccc(Br)cc5)nc4s3)coc2c1` registered its Activity at Non-toxic

###

# System: Rattus norvegicus
# experiment.notes: Antiinflammatory activity in Wistar albino rat assessed as inhibition of carrageenan-induced paw oedema at 100 mg/kg, po measured 1 hr after carrageenan challenge
# Type: functional
Entry flag: Satisfied if inhibition in vivo at 100 mg/kg reaches 10%; Not satisfied if it does not.

Cc1ccc2c(Cc3nn4c(CN5CCOCC5)c(-c5ccc([N+](=O)[O-])cc5)nc4s3)coc2c1    Not satisfied
Cc1ccc2c(Cc3nn4c(CN5CCOCC5)c(-c5ccc(Cl)cc5)nc4s3)coc2c1    Satisfied
Cc1ccc2c(Cc3nn4c(CN5CCOCC5)c(-c5ccc(Br)cc5)nc4s3)coc2c1    Satisfied
Cc1ccc2c(Cc3nn4c(C=O)c(-c5ccc(Cl)cc5)nc4s3)coc2c1    Satisfied
CC(C)Cc1ccc(C(C)C(=O)O)cc1 (stereo not drawn)    Satisfied

Ask | Does the compound `Cc1ccc2c(Cc3nn4c(C=O)c(-c5ccc(Br)cc5)nc4s3)coc2c1` have recorded inhibition in vivo at 100 mg/kg that is 10% or more?
Reply | Satisfied

Ask | Reported inhibition in vivo at 100 mg/kg at or above 10%? `Cc1ccc2c(Cc3nn4c(CO)c(-c5ccc(Cl)cc5)nc4s3)coc2c1`
Reply | Satisfied

Ask | Dear colleague, could you confirm whether `Cc1ccc2c(Cc3nn4c(C#N)c(-c5ccc(Cl)cc5)nc4s3)coc2c1` has inhibition in vivo at 100 mg/kg at or above 10%?
Reply | Satisfied

###

# System: Rattus norvegicus
# experiment.notes: Analgesic activity in Wistar albino rat […] assessed as reaction time for tail withdrawal at 100 mg/kg, po after 30 mins by tail flick method
# Assay type: functional
Exam item: assign yes to entries whose Activity is below 4 s and no to entries at or above 4 s. Note that a value of exactly 4 s receives no.

Below, 10 compounds whose answers are already recorded.
Cc1ccc2c(Cc3nn4c(CN5CCOCC5)c(-c5ccc(Cl)cc5)nc4s3)coc2c1    yes
CS(=O)(=O)Nc1ccc([N+](=O)[O-])cc1Oc1ccccc1 [NIMESULIDE]    no
Cc1ccc2c(Cc3nn4c(CN5CCOCC5)c(-c5ccc([N+](=O)[O-])cc5)nc4s3)coc2c1    yes
Cc1ccc2c(Cc3nn4cc(-c5ccc([N+](=O)[O-])cc5)nc4s3)coc2c1    no
Cc1ccc2c(Cc3nn4c(C=O)c(-c5ccc(Cl)cc5)nc4s3)coc2c1    yes
Cc1ccc2c(Cc3nn4cc(-c5ccc(Cl)cc5)nc4s3)coc2c1    yes
Cc1ccc2c(Cc3nn4c(CN5CCOCC5)c(-c5ccc(Br)cc5)nc4s3)coc2c1    yes
Cc1ccc2c(Cc3nn4c(/C=N/O)c(-c5ccc(Cl)cc5)nc4s3)coc2c1    yes
Cc1ccc2c(Cc3nn4c(CO)c(-c5ccc(Cl)cc5)nc4s3)coc2c1    yes
Cc1ccc2c(Cc3nn4cc(-c5ccc(Br)cc5)nc4s3)coc2c1    yes

Ask | Does the reported Activity of the following compound sit strictly below 4 s? `Cc1ccc2c(Cc3nn4c(CO)c(-c5ccc(Br)cc5)nc4s3)coc2c1`
Reply | yes

Ask | Would you kindly verify if Activity of `Cc1ccc2c(Cc3nn4c(C#N)c(-c5ccc(Cl)cc5)nc4s3)coc2c1` is strictly less than 4 s?
Reply | yes

Ref: ChEMBL document CHEMBL1140193
